- assayed-target: σ2 receptor (Rattus norvegicus)
- measurement-protocol: σ2 receptor affinity, inhibition of [3H]DTG binding in rat liver membrane homogenates
- Set-up: preparations of membrane homogenates obtained from rat liver; from tissue; host or cells: rat liver
- condition-description: Ki σ1 from human σ1 receptors
measure-name: Selectivity (Ki σ1/Ki σ2)

Example compounds with recorded Selectivity (Ki σ1/Ki σ2):
COc1cc2c(cc1OC)CN(CCCCn1ccc3cc(F)ccc31)CC2    9.7
COc1cc2c(cc1OC)CN(CCCCn1ccc3ccc(F)cc31)CC2    6.5

[I] COc1cc2c(cc1OC)CN(CCCCn1ccc3cccc(F)c31)CC2
[II] COc1cc2c(cc1OC)CN(CCCCn1ccc3c(F)cccc31)CC2
**Query** Parameter metric = Selectivity (Ki σ1/Ki σ2). Return the lower-valued option from I and II . Output the label that corresponds to your choice.
**Result** II
(II: 1.5, I: 8)

====

Hi! I'm sharing some pKi results obtained with human σ1 receptors (Homo sapiens, UniProt Q99720).
Sequence (Q99720 whole entry): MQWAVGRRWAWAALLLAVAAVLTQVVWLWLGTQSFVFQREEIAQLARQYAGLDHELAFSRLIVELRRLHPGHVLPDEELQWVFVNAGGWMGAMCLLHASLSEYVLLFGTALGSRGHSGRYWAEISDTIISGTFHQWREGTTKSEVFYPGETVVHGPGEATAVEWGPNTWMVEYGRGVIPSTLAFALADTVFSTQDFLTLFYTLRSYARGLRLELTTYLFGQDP
pKi: −log10 of the molar value.
measure-name: pKi

[a] COc1cc2c(cc1OC)CN(CCCCn1ccc3cccc(F)c31)CC2 [Compound 37]
[b] COc1cc2c(cc1OC)CN(CCCCn1ccc3c(F)cccc31)CC2 [Compound 34]
**Query** Parameter metric = pKi. Return the lower-valued option from a and b . Output the label that corresponds to your choice.
**Result** a

====

- assayed-target: σ2 receptor (Rattus norvegicus, UniProt Q5U3Y7)
- Sequence (Q5U3Y7 1-176): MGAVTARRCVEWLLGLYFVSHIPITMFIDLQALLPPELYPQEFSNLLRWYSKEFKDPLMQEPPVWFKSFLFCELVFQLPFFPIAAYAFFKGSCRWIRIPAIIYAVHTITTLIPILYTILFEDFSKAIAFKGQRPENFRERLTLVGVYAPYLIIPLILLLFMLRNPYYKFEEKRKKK
- measurement-protocol: σ2 receptor affinity, inhibition of [3H]DTG binding in rat liver membrane homogenates
- Design: preparations of membrane homogenates obtained from rat liver; from tissue; host or cells: rat liver
- condition-description: [3H]DTG, rat liver membrane homogenates
pKi: −log10 of the molar value.
measure-name: pKi

Example compounds with recorded pKi:
COc1cc2c(cc1OC)CN(CCCCn1ccc3ccc(F)nc31)CC2 [41 (RM273)]    8.80
COc1cc2c(cc1OC)CN(CCCCn1ccc3cccc(F)c31)CC2    8.00
COc1cc2c(cc1OC)CN(CCCCn1ccc3c(F)nccc31)CC2    8.26

[P] COc1cc2c(cc1OC)CN(CCCCn1ccc3ccc(F)cc31)CC2
[Q] COc1cc2c(cc1OC)CN(CCCCn1ccc3cc(F)ncc31)CC2
[R] COc1cc2c(cc1OC)CN(CCCCn1ccc3ccnc(F)c31)CC2 [42 (RM297)]
**Query** In this exercise, place the 3 compounds in ascending sequence of their recorded pKi. Sort the labels as requested; that list is your answer.
**Result** P, R, Q

====

- measurement-protocol: Lipophilicity (logD7.4), shake-flask method
- Assay type: physicochemical
- condition-description: n-octanol/PBS pH 7.4, shake-flask, n = 3
- Method: The in vitro stability of [^18F]RM273 was investigated in saline, phosphate-buffered saline (PBS), and TRIS-HCl buffer (50 mM, pH 7.4) at 37 °C for 2 h, and the radioligand remained intact (90%, 94%, and 100%, respectively; saline for 1 h: 95%). The logD7.4 of [^18F]RM273 was experimentally determined by the shake-flask method as 1.78 ± 0.22 (n = 3), which is well within the range of 1–3.5 recommended for brain targeting compounds [43]. […]
measure-name: logD
I only need the number, thanks.

**Query** Which logD value is on record for COc1cc2c(cc1OC)CN(CCCCn1ccc3ccc([18F])nc31)CC2 [[^18F]RM273] ?
**Result** 1.78
